Entries annotated with measured Ki
Target: T1, human recombinant GIP receptor (human, UniProt P48546 22-466)
T1 construct: whole, on cells; Assayed as washed membranes of CHO-K1 cells expressing the receptor; also called hGIP receptor
T1 sequence (looked up): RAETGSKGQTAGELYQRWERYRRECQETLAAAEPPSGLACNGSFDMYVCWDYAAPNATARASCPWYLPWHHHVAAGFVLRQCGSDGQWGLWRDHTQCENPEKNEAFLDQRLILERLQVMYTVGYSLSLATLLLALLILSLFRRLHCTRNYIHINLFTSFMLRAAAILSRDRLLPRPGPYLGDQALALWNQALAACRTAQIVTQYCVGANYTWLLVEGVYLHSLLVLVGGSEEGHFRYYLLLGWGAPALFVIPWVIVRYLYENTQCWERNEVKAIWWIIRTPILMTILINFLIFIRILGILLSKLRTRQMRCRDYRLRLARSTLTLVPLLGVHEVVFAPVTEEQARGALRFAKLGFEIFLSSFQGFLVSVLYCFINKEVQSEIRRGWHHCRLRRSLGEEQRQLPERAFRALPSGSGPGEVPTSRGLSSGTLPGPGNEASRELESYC
Assay: displacement of [125I]GIP, membranes of CHO-K1 cells expressing human GIP receptor
[ ]: non-standard residue; d: D form. The star is where a group is joined. Desaminotyrosyl = O=C(CCc1ccc(O)cc1)*; Hyp = O=C(O)[C@@H]1C[C@@H](O)CN1; Ac6c = NC1(C(=O)O)CCCCC1
OUTCOME_MEASURE: Ki (nM)

[[record]]
binder = "YGEGTFISDYXIAMDKIHQQDFVNWLLAQKGKKNDWKHNXTQ (3F-Tyr at 1; A5c at 11 and 40) [(3F-Tyr^1, Gly^2, A5c^11, 40)hGIP(1-42)-OH]"
reading = 10.4

[[record]]
binder = "YXEGTFISDYXIAMDKIHQQDFVNWLLAQKGKKNDWKHNIXQ (3NO2-Tyr at 1; Aib at 2; A5c at 11 and 41) [(3NO2-Tyr^1, Aib^2, A5c^11, 41)hGIP(1-42)-OH]"
reading = 11.2

[[record]]
binder = "[Desaminotyrosyl]A[Hyp]GTF[Ac6c]SDYSIAMDKIHQQDFVNWLLAQKGKKNDWKHNITQ-OH [(4Hppa^1, 4Hyp^3, A6c^7)hGIP(1-42)-OH]"
reading = 251

[[record]]
binder = "XXEGTFISDYXIAMDKIHQQDFVNWLLAQKGKKNDWKHNIXQ (Taz at 1; Aib at 2; A5c at 11 and 41) [(Taz^1, Aib^2, A5c^11, 41)hGIP(1-42)-OH]"
reading = 3.28

[[record]]
binder = "YAEGTFISDYXIAXDKIHQQDFVNWLLAQKGKKNDWKHNITQK (3Cl-Tyr at 1; D-Ala at 2; A5c at 11 and 14; Lys(N-C(O)-(CH2)10-CH3) at 43, X stands for a non-natural residue) [[3Cl-Tyr^1, D-Ala^2, A5c^11, 14, Lys^43(N-C(O)-(CH2)10-CH3)]hGIP(1-43)-OH]"
reading = 9.06

[[record]]
binder = "XXEGTFISDYXIAXDKIHQQDFVNWLLAQKGKKNDWKHNIXQH (3MeO-Tyr at 1; Aib at 2; A5c at 11, 14 and 41) [(3MeO-Tyr^1, Aib^2, A5c^11, 14, 41-His^43)hGIP(1-43)-OH]"
reading = 6.4

